src = ChEMBL document CHEMBL1201862

For each of the compounds below, state its GI50.
Test system: SK-OV-3
testName: NCI tumour cell line growth inhibition, 48 h
Activity calls are given as the source filed them. Cut-off read from the data, not from the text of the source: active = GI50 up to about 1.1 µM and inactive = higher.

Record summary for "C[C@@]12[C@H]3CC[C@@H]1[C@H](O)C(=O)N2CC3" : reported GI50 = > 100 µM (inactive)

Record summary for "Nn1c(S)nnc1N/N=C1/C(=O)Nc2ccccc21" : reported GI50 = 43.7 µM (inactive)

Record summary for "COc1ccc(/C=C2\C[C@H]3[C@@H]4CCC5=C/C(=N/O)CC[C@]5(C)[C@H]4CC[C@]3(C)\C2=N\O)cc1" : reported GI50 = 42.7 µM (inactive)

Record summary for "CC(=O)Nc1ccc(NC(=O)CC(=O)Nc2ccc(NC(C)=O)cc2)cc1" : reported GI50 = 20.2 µM (inactive)

Record summary for "COc1ccc2nc3c([N+](=O)[O-])ccc4c3c(c2c1)N=CN4CCN(C)C" : reported GI50 = 9.27 µM (inactive)
